Test: in vitro
Settings: mouse, microsomes, pH 7.4, % remaining at 30 min with NADPH
MEASURED QUANTITY: remaining at 0.5 h, 1 μM (%)
Express it in %; write the number only.

Annotate the molecule CC(C)NCC(O)COc1cccc2ccccc12 (centres unmarked) with its measured remaining at 0.5 h, 1 μM.
14.5

Annotate the molecule CC(C)=CCC/C(C)=C/CC/C(C)=C/CC[C@]1(C)CCc2cc(O)cc(C)c2O1 with its measured remaining at 0.5 h, 1 μM.
63.7

----------
Assay: Metabolic stability in mouse liver microsomes with or without NADPH
Details: mouse, microsomes, pH 7.4
MEASURED QUANTITY: half-life at 1 μM (h)
Express it in h; write the number only.

Annotate the compound CC(C)=CCC/C(C)=C/CC/C(C)=C/CC[C@]1(C)CCc2cc(O)cc(C)c2O1 with its measured half-life at 1 μM.
1.8
